Measured values drawn from PubChem BioAssay (NCI) for this set.

- System: KM12 colon
- protocol.notes: NCI-60 one-dose screen, 48 h (100 = growth as untreated, 0 = no growth, -100 = all killed)
- protocol.conditions: 10 µM unless noted
The panel holds about 83,000 compounds, 20% with a hit somewhere; the sample as a whole holds those more often.
assay.endpoint: growth (%)
Output spec: scalar in %, unitless text.

Briefly, growth measured for O=C1NC(c2ccc(Cl)c(Cl)c2)=C/C1=C\c1ccccc1 : 89.2

Briefly, growth measured for N#C/C(=C\c1ccc(-c2cccc(C(F)(F)F)c2)o1)c1nc(-c2ccco2)cs1 : 65.5

Briefly, growth measured for COc1ccc(C2=NN(c3nc(-c4ccc(OC)cc4)c(C#N)c(=O)n3C)C(=O)CC2)cc1 : 107

Briefly, growth measured for Nc1c2c(nc3ccc(Br)cc13)CC(c1ccccc1)CC2=O (stereo not given) : 24.7

Briefly, growth measured for CC(C)=CCC/C(C)=C/CC/C(C)=C/CC/C(C)=C/CSC[C@H](NC(=O)CCCCCN1CCN(C)CC1)C(=O)NC1CCCCC1 : 81.7

Briefly, growth measured for Oc1cccc2ccc(N/N=C/c3cc(CN4CCCCC4)c(O)c4ncccc34)nc12 : 9.18

Briefly, growth measured for CN1CCN(c2ccc3nc(-c4[nH]ncc4Nc4ncnc5[nH]ccc45)[nH]c3c2)CC1 : 10.2

Briefly, growth measured for COc1cc(-c2c(C#N)c(-c3cccs3)nc3c2c(-c2ccccc2)nn3-c2ccccc2)ccc1O : 78.4

Briefly, growth measured for CC(C)/C=C/CC[C@](C)(O)[C@H]1CC[C@]2(C)[C@@H]1CC[C@@H]1[C@@]3(C)C/C(=C/c4cccc(C(F)(F)F)c4)C(=O)C(C)(C)[C@@H]3CC[C@]12C : 99.8

Briefly, growth measured for CCN1CCN(C(=O)[C@]23CCC(C)(C)C[C@@H]2C2=CC[C@@H]4[C@@]5(C)C/C(=C/c6ccncc6)C(=O)C(C)(C)[C@@H]5CC[C@@]4(C)[C@]2(C)CC3)CC1 : -39.9

Briefly, growth measured for Cn1cc(-c2nc(-c3c[nH]c4ncccc34)cs2)c2cc(F)ccc21 : -12.7

Briefly, growth measured for CCN1CCN(C(=O)[C@]23CCC(C)(C)C[C@@H]2C2=CC[C@@H]4[C@@]5(C)C/C(=C/c6cccnc6)C(=O)C(C)(C)[C@@H]5CC[C@@]4(C)[C@]2(C)CC3)CC1 : 33.8

Briefly, growth measured for CCN1CCN(C(=O)[C@@]2(C)CC[C@]3(C)CC[C@]4(C)C(=CC(=O)[C@@H]5[C@@]6(C)CC[C@H](OCCC#N)C(C)(C)[C@@H]6CC[C@]54C)[C@@H]3C2)CC1 : 98.5

Briefly, growth measured for Cc1cc(N2CCCCC2)nc(N(CCNc2ccnc3cc(Cl)ccc23)Cc2ccco2)n1 : 31.9

Briefly, growth measured for COc1cccc(-c2nn(-c3ccccc3)cc2-c2ccnc(NCCNS(=O)(=O)c3ccc(Cl)cc3)c2)c1 : 28.5

Briefly, growth measured for COC(=O)[C@]12CC[C@@H](C(=O)/C=C/c3cccnc3)[C@@H]1[C@H]1CC[C@@H]3[C@@]4(C)C/C(=C/c5cccnc5)C(=O)C(C)(C)[C@@H]4CC[C@@]3(C)[C@]1(C)CC2 : -75

Briefly, growth measured for O=c1[nH]c2c3ccncc3cc(-c3cccc(Cl)c3)c2c2cnccc12 : 34.7

Briefly, growth measured for COc1cc(-c2cc(-c3nc4cc(Cl)c(Cl)cc4[nH]3)[nH]n2)cc(OC)c1OC : 51.5

Briefly, growth measured for Cc1ccc(-c2ccc(/C=C(\C#N)c3nc(-c4ccco4)cs3)o2)cc1 : 61.2

Briefly, growth measured for O=Cc1nc2ccccc2[nH]1 : 99.8

Briefly, growth measured for CCOC(=O)C1OC1(c1ccccc1)c1ccccc1 (stereo not given) : 94.3

Briefly, growth measured for COc1ccc(-c2nc3ccccn3c2-c2nc3ccc(Cl)cc3[nH]2)cc1 : 86.4

Briefly, growth measured for C[C@@H]1CCCCCCCCC[C@H](O)C(=O)C[C@@H](SC[C@@H](O)C(=O)O)C(=O)O1 : 95.8

Briefly, growth measured for O=C1C=C(C(O)c2ccc(O)cc2)C(=O)c2ccccc21 (stereo not given) : 107

Briefly, growth measured for COC(c1ccccc1)(c1ccccc1)c1ccccc1 : 82.2

Briefly, growth measured for c1csc(-c2nc(-c3cc4ccccc4c(N4CCOCC4)n3)cs2)c1 : 99.7

Briefly, growth measured for COc1ccc(-c2cc(/C=C/C(=O)c3ccc(N)cc3)[nH]n2)cc1 : 3.29

Briefly, growth measured for COc1ccc(-c2nc3c(c(C)nn3-c3ccc(F)cc3)c(=O)[nH]2)cc1 : 84.4

Briefly, growth measured for COc1ccc2c(c1)c(-c1nc(-c3c[nH]c4ncccc34)cs1)cn2CCCN1CCCCC1 : 47.3

Briefly, growth measured for CC(C)=CCC[C@](C)(O)[C@H]1CC[C@]2(C)[C@@H]1CC[C@@H]1[C@@]3(C)C/C(=C/c4ccc(Br)cc4)C(=O)C(C)(C)[C@@H]3CC[C@]12C : 94.9

Briefly, growth measured for Cc1cc(Cl)nc(N(CCCNc2ccnc3cc(Cl)ccc23)Cc2ccco2)n1 : 22.4

Briefly, growth measured for CC1(C)CC[C@]2(C(=O)NCCNCCN)CC[C@]3(C)C(=CC[C@@H]4[C@@]5(C)CCC(=O)C(C)(C)[C@@H]5CC[C@]43C)[C@@H]2C1 : 9.99

Briefly, growth measured for Cc1cccc(C)c1NC(=O)CSC(=S)N1CCN(CCOCCO)CC1 : 98.5

Briefly, growth measured for COc1ccc(/C=C(\C#N)c2cc3ccccc3n2S(C)(=O)=O)cc1 : 69

Briefly, growth measured for COc1ccc(/C(=C\c2ccc3c(c2)OCO3)C(=O)Nc2nc3ccccc3s2)cc1OC : 85.4

* * *

Give measured growth for each item. Keep answers brief.
- Tested on: HCT-116 colon
- protocol.notes: NCI-60 one-dose screen, 48 h (100 = growth as untreated, 0 = no growth, -100 = all killed)
- protocol.conditions: 10 µM unless noted
The panel holds about 83,000 compounds, 20% with a hit somewhere; the sample as a whole holds those more often.
Output spec: scalar in %, unitless text.

Briefly, growth measured for Nc1ccc(Cl)cn1 : 95.4

Briefly, growth measured for Brc1ccc(Cn2nnnc2-c2ccn(-c3ccccc3)n2)cc1 : 49.4

Briefly, growth measured for COc1ccc2nc(-c3cc(-c4cc(OC)c(OC)c(OC)c4)n[nH]3)[nH]c2c1 : 12.7

Briefly, growth measured for Cc1csc(-c2ccc3c(c2)COC3(CCCN(C)C)c2ccc(F)cc2)c1 (stereo unspecified) : -26.7

Briefly, growth measured for COc1ccc2c(c1)c(-c1nc(-c3c[nH]c4ncccc34)cs1)cn2CCNC(=O)OC(C)(C)C : 87.6

Briefly, growth measured for Cc1cccc(C)c1NC(=O)CSC(=S)N1CCCCC1 : 99.7

* * *

- Tested on: SW-620 colon
- protocol.notes: NCI-60 one-dose screen, 48 h (100 = growth as untreated, 0 = no growth, -100 = all killed)
- protocol.conditions: 10 µM unless noted
Compounds without any hit were thinned out: in the full panel of roughly 83,000, 20% have a hit.
Give measured growth for each item. Keep answers brief.
Output spec: scalar in %, unitless text.

Briefly, growth measured for C=C(C)[C@@H]1CC[C@]2(C=NCCCNCCCCNCCCN)CC[C@]3(C)[C@H](CC[C@@H]4[C@@]5(C)CCCNC(C)(C)[C@@H]5CC[C@]43C)[C@@H]12 : 88.4

Briefly, growth measured for CC1(C)c2ccccc2C(=O)C1(Br)Cc1ccccc1 (stereo not given) : 36.6

Briefly, growth measured for NC1=C(C/C(N)=N\O)C(c2ccccc2Cl)c2c(ccc3ccccc23)O1 (stereo not given) : 63.1

Briefly, growth measured for COc1cc(/C=N/Nc2ncnc3c2c(C)nn3-c2ccc(F)cc2)ccc1O : 131

Briefly, growth measured for NC1=NN=C2N(N)C(=O)c3cnn(-c4ccccc4)c3N2c2nc(-c3ccccc3)cc(-c3ccccc3)c21 : 104

* * *

- Test system: SK-MEL-28 melanoma
- protocol.notes: NCI-60 one-dose screen, 48 h
- protocol.conditions: 10 µM unless noted
This is part of a sample that, as a whole, favours compounds with a hit. Of some 83,000 tested, about 20% had one in any assay. Activity calls are given as the source filed them. The calls were made as follows: active = growth percent below 10; inactive = the rest.
Select the matching outcome among yes for active, no for inactive

Q) Hi team, can someone confirm the assay call for Cn1cc(-c2csc(-c3cn(CCCN4CCCCC4)c4ccc(F)cc34)n2)c2cccnc21 ?
A) yes

Q) Hi team, can someone confirm the assay call for COc1ccc(/C=C/C(=O)NCC(C)O)cc1 (stereo unspecified) ?
A) no

Q) Hi team, can someone confirm the assay call for CCC(CC)C(=O)OC(C)COc1ccc(C(C)(C)C)cc1 (stereo unspecified) ?
A) no

Q) Hi team, can someone confirm the assay call for CC1(C)CC[C@]2(CO)CC[C@]3(C)C(=CC[C@@H]4[C@@]5(C)CC[C@H](NCO)C(C)(C)[C@@H]5CC[C@]43C)[C@@H]2C1 ?
A) no

Q) Hi team, can someone confirm the assay call for COc1cnc2c(c1)C(=O)c1c-2n(CCCNC(C)C)c(=O)c2cc([N+](=O)[O-])ccc12 ?
A) yes

Q) Hi team, can someone confirm the assay call for CC(C)(C)c1nc(-c2ccc(O)c(O)c2)cs1 ?
A) no

Q) Hi team, can someone confirm the assay call for CN1CCN(c2nc(-c3cccc4ccccc34)nc3sc4c(c23)CCCCCC4)CC1 ?
A) no

Q) Hi team, can someone confirm the assay call for c1ccc2[nH]c(-c3ccc(Nc4nc(N5CCCCC5)nc(N5CCOCC5)n4)cc3)nc2c1 ?
A) yes

Q) Hi team, can someone confirm the assay call for C=C(C)[C@@H]1CC[C@]2(C(=O)O)CC[C@]3(C)[C@H](CC[C@@H]4[C@@]5(C)C/C(=C/c6cccc(I)c6)C(=O)C(C)(C)[C@@H]5CC[C@]43C)[C@@H]12 ?
A) no

Q) Hi team, can someone confirm the assay call for CC(C)C[C@@H](NC(=O)[C@@H](Cc1ccccc1)NC(=O)c1cnccn1)B1O[C@H]2[C@H](O)[C@@H](C(=O)NCCCC[C@@H]3NC(=O)[C@@H](Cc4ccccc4)NC(=O)[C@H](CC(=O)O)NC(=O)CNC(=O)[C@H](CCCN=C(N)N)NC3=O)O[C@@H](CN)[C@H]2O1 ?
A) yes

Q) Hi team, can someone confirm the assay call for Cc1cc2nc3c4cc([N+](=O)[O-])cc([N+](=O)[O-])c4n(CCN(C)C)c3nc2cc1C ?
A) no

Q) Hi team, can someone confirm the assay call for Cc1ccc(-c2nn(Cc3cn(-c4cc(C)nc5ccccc45)nn3)c3ncnc(N)c23)cc1 ?
A) no

Q) Hi team, can someone confirm the assay call for CC(C)=CCC[C@](C)(O)[C@H]1CC[C@]2(C)[C@@H]1CC[C@@H]1[C@@]3(C)C/C(=C/c4cccc([N+](=O)[O-])c4)C(=O)C(C)(C)[C@@H]3CC[C@]12C ?
A) no

Q) Hi team, can someone confirm the assay call for c1cnc2[nH]cc(-c3csc(-c4cn(CCCN5CCCCC5)c5ccccc45)n3)c2c1 ?
A) yes

Q) Hi team, can someone confirm the assay call for CCN(CC)c1ccc(/C=C/c2cc(C)c3ccccc3n2)cc1 ?
A) no

Q) Hi team, can someone confirm the assay call for COc1ccc(-c2cc(/C=C/C(=O)c3ccc(N)cc3)[nH]n2)cc1 ?
A) no
